- PROTOCOL TEXT: Pharmacokinetic study in mice, plasma and brain structures, LC/MS/MS
- Assay type: in vivo, Swiss albino mice
- RUN CONDITIONS: Swiss albino, mouse, frontal cortex, ip, 1.25 mg/kg, 1.25 mg/kg i.p., 240 min, read-out: Concentration, frontal cortex (Mean)
ENDPOINT LABEL: concentration at 240 min (ng/mL)

INSERT INTO results (molecule, unit_text, recorded_number) VALUES
  ('Cn1c(=O)c2c(nc3n(CCCCN4CCN(c5cccc(C(F)(F)F)c5)CC4)ccn23)n(C)c1=O [AZ-861]', 'ng/mL', 12.8);

====

- PROTOCOL TEXT: Pharmacokinetic study in mice, plasma and brain structures, LC/MS/MS
- Type: in vivo, Swiss albino mice
- RUN CONDITIONS: Swiss albino, mouse, hippocampus, ip, 0.625 mg/kg, 0.625 mg/kg i.p., 60 min, read-out: Concentration, hippocampus (individual animals)
- Experimental: Blood samples from the Swiss albino mice were collected at 0 (pre-dose), 5, 15, 30, 60, 120, 240 and 480 min after a compound administration. […] The ion source parameters were as follows: ion spray voltage: 5500 V; nebulizer gas (gas 1): 20 psi; turbo gas (gas 2): 25 psi; temperature of the heated nebulizer: 400°C; curtain gas: 40 psi; collision gas: 6 psi. […] Quantification was done via peak area ratio. […]
ENDPOINT LABEL: concentration at 60 min (ng/mL)

INSERT INTO results (smiles_structure, recorded_number) VALUES
  ('Cn1c(=O)c2c(nc3n(CCCCN4CCN(c5ccccc5F)CC4)ccn23)n(C)c1=O', 38.9);

Numbers sourced from paper PMC7413516.
